recorded.endpoint: GI50

Query :: Provide value of GI50 for this record tested with HCT-15: CN(C)c1ncnc2c1ncn2C1C=CC(COS(N)(=O)=O)C1 (stereo not drawn)
Result :: > 100 µM

Query :: Provide value of GI50 for this record tested with HCT-15: CCC(C)C(N)C(=O)NC(CC(N)=O)C(=O)NC(CC(C)C)C(=O)NC(CCCCN)C(=O)NC(C)C(=O)NC(CC(C)C)C(=O)NC(C)C(=O)NC(C)C(=O)NC(CC(C)C)C(=O)NC(C)C(=O)NC(CCCCN)C(=O)NC(CCCCN)C(=O)NC(C(=O)NC(CC(C)C)C(N)=O)C(C)CC (stereo not drawn)
Result :: 16.6 µM

Query :: Provide value of GI50 for this record tested with HCT-15: COc1ccc(Cc2nn(C3OC(COC(C)=O)C(OC(C)=O)C(OC(C)=O)C3OC(C)=O)c(=S)n(-c3ccc(OC)cc3)c2=O)cc1 (stereo not drawn)
Result :: > 100 µM

Query :: Provide value of GI50 for this record tested with HCT-15: C=CCOc1cc2c(cc1C(C)c1ccc(OC)cc1)OCO2 (stereo not drawn)
Result :: 0.489 µM

Query :: Provide value of GI50 for this record tested with HCT-15: COc1ccc(C(c2c[nH]c3ccc(Br)cc23)c2c[nH]c3ccc(Br)cc23)cc1
Result :: 0.214 µM

Query :: Provide value of GI50 for this record tested with HCT-15: O=C(Nc1ccccc1)c1cc(S(=O)(=O)N2CCNC2=O)c(S)cc1Cl
Result :: > 100 µM

Query :: Provide value of GI50 for this record tested with HCT-15: CCOC(=O)c1cc(C2(OC)CCN(Cc3ccccc3)C2=O)c(-c2cc(C)no2)[nH]1 (stereo not drawn)
Result :: > 100 µM

Query :: Provide value of GI50 for this record tested with HCT-15: Cc1cc2nc(N)n[n+]([O-])c2cc1C
Result :: > 100 µM

====

- Test system: OVCAR-8
- method.notes: NCI tumour cell line growth inhibition, 48 h
The source made the active and inactive calls. No stated cut-off is given here; in the data, active = GI50 up to about 1.1 µM and inactive = higher.
recorded.endpoint: GI50

Query :: Can you look up the measured GI50 of CC(C)(C)C1=CC(=C2C=Cc3cc(O)ccc3O2)C=C(C(C)(C)C)C1=O for me?
Result :: 1.7 µM (inactive)

Query :: Can you look up the measured GI50 of CC(C)=C[C@H]1CCC2(OCCO2)[C@]1(C)CO for me?
Result :: > 100 µM (inactive)

Query :: Can you look up the measured GI50 of C=C(C)C1Cc2cc(C(C)=O)ccc2O1 (stereo not given) for me?
Result :: > 100 µM (inactive)

Query :: Can you look up the measured GI50 of CN1CCC(C(O)(c2ccccc2)c2ccc(Br)cc2)CC1 (stereo not given) for me?
Result :: 50.2 µM (inactive)

Query :: Can you look up the measured GI50 of Oc1nc(S)nc2c1CN(CCCN1CCOCC1)CN2 for me?
Result :: 31 µM (inactive)

Query :: Can you look up the measured GI50 of C=C1C(C)C2C(Cc3ccccc3)NC(=O)C23C(OC(C)=O)C=CC(C)(O)C(=O)C(C)C/C=C/C3C1O (stereo not given) for me?
Result :: 79.8 µM (inactive)

Query :: Can you look up the measured GI50 of CC(=O)Nc1ccc(/N=C2\C(c3ccccc3)=C(SC3=C(c4ccccc4)/C(=N\c4ccc(NC(C)=O)cc4)c4ccccc43)c3ccccc32)cc1 for me?
Result :: 29.6 µM (inactive)

Query :: Can you look up the measured GI50 of CCN(CC)CCn1c2c3ccccc3ccc2c2oc(=O)c3ccccc3c21 for me?
Result :: > 100 µM (inactive)

Query :: Can you look up the measured GI50 of C[C@]12CCCC(=O)C1C[C@H](C(=O)O)CC2 (stereo not given in full) for me?
Result :: > 100 µM (inactive)

Query :: Can you look up the measured GI50 of CC(=O)[C@@H](C)C(=O)N1C(=O)OC[C@@]12[C@@H]1CC[C@@H](C1)C2(C)C for me?
Result :: > 100 µM (inactive)

====

- System: K562
- method.notes: NCI tumour cell line growth inhibition, 48 h
The source made the active and inactive calls. Rule as the data show it: active = GI50 up to about 1.1 µM and inactive = higher.
recorded.endpoint: GI50

Query :: Provide value of GI50 for this record tested with K562: c1cnc2c(c1)ccc1cccnc12
Result :: 3.67 µM (inactive)

Query :: Provide value of GI50 for this record tested with K562: C/C(=N\O)c1ccc(OCc2cc(C(F)(F)F)cc(C(F)(F)F)c2)cc1
Result :: 33 µM (inactive)

Query :: Provide value of GI50 for this record tested with K562: COc1ccc2c(c1OC)C(=O)O[C@@H]2[C@H]1c2c(cc3c(c2OC)OCO3)CCN1C
Result :: 33 µM (inactive)

Query :: Provide value of GI50 for this record tested with K562: CN(C)/C(N)=N\C#N
Result :: > 100 µM (inactive)

Query :: Provide value of GI50 for this record tested with K562: c1ccc2c3c(ccc2c1)-c1[nH]ncc1CCO3
Result :: 32.8 µM (inactive)

Query :: Provide value of GI50 for this record tested with K562: CN1CCN(C(=S)N(C)C(=O)c2ccc(Cl)cc2)CC1
Result :: > 100 µM (inactive)

Query :: Provide value of GI50 for this record tested with K562: Cc1ccc(N2C(=O)/C(=C3\SC(C(N)=O)=C(N)N3c3ccccc3)SC2=S)cc1
Result :: 78.7 µM (inactive)

Query :: Provide value of GI50 for this record tested with K562: c1ccc(-c2nnc(-c3nsc4ccccc34)o2)cc1
Result :: > 100 µM (inactive)

Query :: Provide value of GI50 for this record tested with K562: NC(CCCCNC(=O)OCc1ccccc1)C(=O)NC(CCCCNC(=O)OCc1ccccc1)C(=O)ON1C(=O)CCC1=O (stereo unspecified)
Result :: > 100 µM (inactive)

Query :: Provide value of GI50 for this record tested with K562: c1cc(-c2sc(-c3ccncc3)c(-c3ccncc3)c2-c2ccncc2)ccn1
Result :: 28.2 µM (inactive)

Query :: Provide value of GI50 for this record tested with K562: CCOC(=O)/C(C#N)=C/N(CC)/N=C/c1ccccc1
Result :: > 100 µM (inactive)

====

- Test system: UACC-62
- method.notes: NCI tumour cell line growth inhibition, 48 h
The source made the active and inactive calls. No stated cut-off is given here; in the data, active = GI50 up to about 1.1 µM and inactive = higher.
Can you tell me GI50 for the items I'm about to list?

Query :: Can you look up the measured GI50 of Cc1c2cc[n+](C)cc2c(C)c2c1[nH]c1ccc(OC(C)C)cc12 for me?
Result :: 2.71 µM (inactive)

Query :: Can you look up the measured GI50 of C=C(C)[C@@H]1CC[C@@H]2C(=CC[C@]3(C)C([C@H](C)CC/C=C(/C)C(=O)O)CC[C@@]23C)[C@@]1(C)CCC(=O)O (stereo partly drawn) for me?
Result :: 20.4 µM (inactive)

Query :: Can you look up the measured GI50 of CC(C)[C@](O)(C(=O)OCC1=CCN2CC[C@@H](O)[C@@H]12)[C@H](C)O for me?
Result :: > 375 µM (inactive)

Query :: Can you look up the measured GI50 of COc1cc(S(=O)(=O)Nc2ccc(-c3csc(N4C(=O)C(C)SC4c4cccs4)n3)cc2)ccc1Cl (stereo not drawn) for me?
Result :: 89.3 µM (inactive)

Query :: Can you look up the measured GI50 of CC(C)(C)[Si](C)(C)OCC1CCC(n2cnc3c(=O)[nH]cnc32)O1 (stereo not drawn) for me?
Result :: 35.7 µM (inactive)

Query :: Can you look up the measured GI50 of Cc1cc(C=O)c2c(=O)c3c(O)ccc(/C=C/C(C)C)c3oc2c1 for me?
Result :: 56.8 µM (inactive)

Query :: Can you look up the measured GI50 of O=C(N/N=C/c1cccc(O)c1O)N/N=C/c1cccc(O)c1O for me?
Result :: 11.9 µM (inactive)

Query :: Can you look up the measured GI50 of C[C@]12CC[C@H]3[C@@H](CC=C4C[C@@H](N5CCCC5)CC[C@@]43C)[C@@H]1C[C@H](N1CCCCC1)[C@@H]2O for me?
Result :: > 100 µM (inactive)

====

- System: LOX IMVI
- method.notes: NCI tumour cell line growth inhibition, 48 h
Calls of active or inactive are those of the source. Cut-off read from the data, not from the text of the source: active = GI50 up to about 1.1 µM and inactive = higher.
Reply using exactly one outcome from true = active, false = inactive

Query :: Give the logged outcome of this assay for the following compound: CS(=O)(=O)c1nc(-c2cc3c(c(S(C)(=O)=O)n2)CCCC3)cc2c1CCCC2
Result :: false

Query :: Give the logged outcome of this assay for the following compound: C=C1CC2(OC1=O)c1ccccc1CCc1ccccc12
Result :: false

Query :: Give the logged outcome of this assay for the following compound: COC(=O)c1nn2ccc3ccccc3c2c1C(=O)OC
Result :: false

Query :: Give the logged outcome of this assay for the following compound: O=C(Nc1ccccc1)c1cc(S(=O)(=O)N2CCNC2=O)c(S)cc1Cl
Result :: false

Query :: Give the logged outcome of this assay for the following compound: c1cc(-c2sc(-c3ccncc3)c(-c3ccncc3)c2-c2ccncc2)ccn1
Result :: false

Query :: Give the logged outcome of this assay for the following compound: COc1cccc(-c2cc(=O)c3ccc(C)nc3[nH]2)c1
Result :: true

Query :: Give the logged outcome of this assay for the following compound: COC(=O)c1ccc2c(c1)sc1nc(-c3ccc(OC)cc3)cn12
Result :: false

Query :: Give the logged outcome of this assay for the following compound: C=CCNC1=C2C[C@@H](C)C[C@@H](OC)[C@H](OC(=O)CN)[C@H](C)/C=C(\C)[C@@H](OC(N)=O)[C@H](OC)/C=C\C=C(/C)C(=O)NC(=CC1=O)C2=O
Result :: true

Query :: Give the logged outcome of this assay for the following compound: CC(=O)OC(C#N)CC(C)(C)/[N+]([O-])=[N+](\[O-])C(C)(C)CC(C#N)OC(C)=O (centres undefined)
Result :: false
